As shown below, each of these compounds has a reported IC50 value.
biological target: Type I (rat brain) NOS (Rattus norvegicus, UniProt P29476); construct: isolated from rat brain cerebellum cells partially purified on a phosphocellulose column; assay: [3H]-arginine to [3H]-citrulline conversion, Type I (rat brain) NOS; conditions: rat brain cerebellum NOS, 25° C.
Sequence (P29476 whole entry): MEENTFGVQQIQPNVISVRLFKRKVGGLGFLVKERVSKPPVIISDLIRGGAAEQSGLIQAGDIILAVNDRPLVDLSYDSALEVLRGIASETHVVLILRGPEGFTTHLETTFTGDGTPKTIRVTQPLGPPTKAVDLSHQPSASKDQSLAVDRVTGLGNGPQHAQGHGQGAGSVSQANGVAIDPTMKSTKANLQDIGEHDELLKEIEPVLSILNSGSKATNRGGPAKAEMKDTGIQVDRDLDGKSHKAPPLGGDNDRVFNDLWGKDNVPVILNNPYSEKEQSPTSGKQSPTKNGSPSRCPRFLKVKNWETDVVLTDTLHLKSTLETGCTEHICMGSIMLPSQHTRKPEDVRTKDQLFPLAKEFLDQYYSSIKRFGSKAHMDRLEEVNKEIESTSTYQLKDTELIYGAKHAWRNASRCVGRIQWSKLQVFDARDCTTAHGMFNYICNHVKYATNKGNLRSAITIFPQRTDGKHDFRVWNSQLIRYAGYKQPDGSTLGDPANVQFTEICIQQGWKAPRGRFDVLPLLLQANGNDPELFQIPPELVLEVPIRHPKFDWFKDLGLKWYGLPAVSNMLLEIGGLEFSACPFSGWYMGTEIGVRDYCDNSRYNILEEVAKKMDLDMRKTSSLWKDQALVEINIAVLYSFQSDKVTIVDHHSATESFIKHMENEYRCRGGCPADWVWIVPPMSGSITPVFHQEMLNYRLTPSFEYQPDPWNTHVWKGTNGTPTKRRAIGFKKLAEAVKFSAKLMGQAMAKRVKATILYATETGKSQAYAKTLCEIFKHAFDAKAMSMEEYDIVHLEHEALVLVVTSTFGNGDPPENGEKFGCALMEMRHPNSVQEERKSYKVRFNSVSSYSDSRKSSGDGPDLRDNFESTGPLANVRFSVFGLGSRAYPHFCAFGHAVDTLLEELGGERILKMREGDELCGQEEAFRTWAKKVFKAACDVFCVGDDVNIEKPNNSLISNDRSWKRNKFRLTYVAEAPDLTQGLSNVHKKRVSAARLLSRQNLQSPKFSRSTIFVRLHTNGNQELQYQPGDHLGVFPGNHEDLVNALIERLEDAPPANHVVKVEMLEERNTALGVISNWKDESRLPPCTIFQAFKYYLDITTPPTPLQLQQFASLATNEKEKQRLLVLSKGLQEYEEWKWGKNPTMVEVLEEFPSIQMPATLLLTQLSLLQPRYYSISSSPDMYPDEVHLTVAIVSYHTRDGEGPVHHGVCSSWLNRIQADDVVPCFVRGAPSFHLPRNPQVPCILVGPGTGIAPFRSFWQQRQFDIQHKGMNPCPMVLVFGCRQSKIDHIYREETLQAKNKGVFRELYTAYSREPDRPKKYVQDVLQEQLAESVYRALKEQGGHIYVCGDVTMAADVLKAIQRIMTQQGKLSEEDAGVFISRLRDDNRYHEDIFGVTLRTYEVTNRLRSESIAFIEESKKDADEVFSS
// return numeric value only (unit: µM, not printed)

The examples below pair each entry with its known result.
1) Cc1ccc([N+](=O)[O-])c(SCCC[C@H](N)C(=O)O)c1 | 1
2) Cc1ccc([N+](=O)[O-])c(NCCC[C@H](N)C(=O)O)c1 | 4
3) N[C@@H](CCCNc1c(Cl)cccc1[N+](=O)[O-])C(=O)O | 100

Turning to the following compound.
// query Item COc1ccc([N+](=O)[O-])c(NCCC[C@H](N)C(=O)O)c1 has what recorded IC50?
// result 20
